Label scheme for flash point: bottom bin: < 40 °C; middle bin: ≥ 40 °C and < 90 °C; top bin: ≥ 90 °C

molecule="NC=O [Formamide]" group="top bin"
molecule=Cc1cccc(C)c1 group="bottom bin"
molecule=CC(C)c1ccccc1 group="middle bin"
molecule=O=C1CCCCC1 group="middle bin"
molecule=Cc1ccc(N)cc1 group="middle bin"
molecule=CN(C)c1ccccc1 group="middle bin"
molecule=O=[N+]([O-])c1ccc(Cl)c([N+](=O)[O-])c1 group="top bin"
molecule=Cc1ccccc1[N+](=O)[O-] group="top bin"
molecule=N#Cc1ccccc1 group="middle bin"
molecule="CCOC(=O)CC(C)=O [Ethyl acetoacetate]" group="middle bin"
molecule="COC(=O)c1ccccc1C(=O)OC [Dimethyl phthalate]" group="top bin"
molecule=c1ccncc1 group="bottom bin"
molecule=CCCCCC(=O)CC group="middle bin"
molecule=Nc1cccc2ccccc12 group="top bin"
molecule=Oc1cccc(O)c1 group="top bin"
molecule="C/C=C/C(=O)OCC [Ethyl crotonate]" group="bottom bin"
molecule=C=CC=CC group="bottom bin"
molecule=Cc1ccccc1 group="bottom bin"
molecule="C=CCl [Vinyl chloride]" group="bottom bin"

* * *

# Lookup of reported flash point keyed by entry
quantity.name: flash point (°C)

molecule=Nc1ccc([N+](=O)[O-])cc1Cl quantity_name="flash point" recorded_number=205.00
molecule=O=CC=Cc1ccccc1 quantity_name="flash point" recorded_number=120.00
molecule=CCOCCO quantity_name="flash point" recorded_number=41.00
molecule=C1CCOC1 quantity_name="flash point" recorded_number=-14.00
molecule="CC1CCCCN1CCCOC(=O)c1ccc(Cl)c(Cl)c1 (stereo unspecified) [3-(2-methylpiperidin-1-yl)propyl 3,4-dichlorobenzoate]" quantity_name="flash point" recorded_number=71.00
molecule=O=[N+]([O-])c1cccc(Cl)c1 quantity_name="flash point" recorded_number=127.00
molecule=CS quantity_name="flash point" recorded_number=-18.00
molecule=CC(C)(C)N quantity_name="flash point" recorded_number=10.00
molecule=CCCOP(=S)(OCCC)OP(=S)(OCCC)OCCC quantity_name="flash point" recorded_number=149.00
molecule="CCCCC(CC)COCC1CO1 (stereo unspecified) [2-(2-ethylhexoxymethyl)oxirane]" quantity_name="flash point" recorded_number=97.00
molecule=OCC=Cc1ccccc1 quantity_name="flash point" recorded_number=126.00

* * *

Listed next: entries and their corresponding flash point.
quantity.name: flash point (°C)

compound="CCCCCCCC/C=C\\CCCCCCCC(=O)OCCCC [butyl (Z)-octadec-9-enoate]" recorded_number=180.00
compound="COc1ccc(C(=O)c2ccccc2)c(O)c1 [(2-hydroxy-4-methoxyphenyl)-phenylmethanone]" recorded_number=100.00
compound="CC1CC(=O)O1 (centres undefined)" recorded_number=60.00
compound=S=C([S-])NCCNC(=S)[S-].[Mn+2] recorded_number=138.00
compound=Cc1cccc(C)c1N recorded_number=91.00
compound="CCC(C)c1ccccc1O (centres undefined)" recorded_number=112.00
compound="COC(=O)c1ccccc1C(=O)OC [dimethyl benzene-1,2-dicarboxylate]" recorded_number=146.00
compound="CCSC(=O)Cl [S-ethyl chloromethanethioate]" recorded_number=31.00
compound="CCCCCCCCCCCCCCCCCC(=O)NCCNC(=O)CCCCCCCCCCCCCCCCC [N-[2-(octadecanoylamino)ethyl]octadecanamide]" recorded_number=280.00

* * *

Rule: flash point below 80 °C gives met. Equal to or above 80 °C gives not met.

compound=Clc1cccc2ccccc12 group="not met"
compound="CC(O)CN (stereo not given)" group=met
compound="CC(C)CCCCCOC(=O)COc1ccc(Cl)cc1Cl [6-methylheptyl 2-(2,4-dichlorophenoxy)acetate]" group=met
compound="OCC1CCCO1 (stereo not given)" group=met
compound=Brc1ccc(-c2ccccc2)cc1 group="not met"
